- Tested on: U-251, LN-229, T98G and LN-18 glioblastoma cells
- protocol.description: luminescence-based quantification of cell viability
- Parameters: species or system human
- stated.conditions: over five days
reported.metric: lethality (cell viability)

| substance | assay.system | reported.metric | result |
| --- | --- | --- | --- |
| sgNT-1: non-targeting guide RNA GGCCAAACGTGCCCTGACGG (SEQ ID NO:29) (chemistry not fully specified) [reference compound] | U-251, LN-229, T98G and LN-18 glioblastoma cells | lethality (cell viability) | no effect |
| sgNT-2: non-targeting guide RNA GCGATGGGGGGGTGGGTAGC (SEQ ID NO:30) (chemistry not fully specified) [reference compound] | U-251, LN-229, T98G and LN-18 glioblastoma cells | lethality (cell viability) | no effect |

###

- Test system: HEK293T and HAP1 cells
- protocol.description: mammalian competitive proliferation assay, cells expressing Cas9 WT
- Assay type: cell-based, human
- stated.conditions: WT Cas9, eight-day assay period
- Description: For assessment of CRISPR-Cas programmed cell depletion using guide RNAs targeting an essential gene (RPA1) or sgCIDEs targeting hundreds of thousands of loci within the genome, cells were stably transduced with a lentiviral vector expressing Cas9-wt (pCF226) or ProCas9Flavi (pCF730) and selected on puromycin. […] Depletion of protease-expressing (GFP+) cells was quantified among the sgRNA-positive (mCherry+) population. […]
reported.metric: depletion of the mCherry-positive population

| substance | assay.system | result |
| --- | --- | --- |
| sgOR2B6-1: guide RNA to olfactory receptor gene, CATTATTCTAGTGTCACGCC (SEQ ID NO:32) (chemistry not given here) [reference compound] | HEK293T and HAP1 cells | no depletion |
| sgOR2B6-2: guide RNA to olfactory receptor gene, GGGTATGAAGTTTGGTGTCC (SEQ ID NO:33) (chemistry not given here) [reference compound] | HEK293T and HAP1 cells | no depletion |
